System: MOLT-4 leukemia
ASSAY_PROCEDURE: NCI tumour cell line growth inhibition, 48 h
Outcome: Yes for TGI of at least 3 µM; No for anything lower.

Check the entry O=c1cc(-c2cccc(OC(F)(F)F)c2)[nH]c2ccc(N3CCCC3)cc12 : does TGI equal or exceed 3 µM?
No

Check the entry Clc1cc(N/N=C(\c2ccccc2)c2ccccn2)ncn1 : does TGI equal or exceed 3 µM?
Yes

Check the entry CCn1c(-c2nonc2N)nc2ccccc21 : does TGI equal or exceed 3 µM?
Yes

Check the entry CC(=O)Oc1ccc2cc(Oc3cc(Cl)c(Cl)cc3Cl)c(=O)oc2c1 : does TGI equal or exceed 3 µM?
Yes

Check the entry Cc1nc2ccc(NCCN(C)C)c3c(=O)c4ccccc4n1c23 : does TGI equal or exceed 3 µM?
Yes

Check the entry Nc1nc(Sc2ccc([N+](=O)[O-])c3nonc23)c2[nH]cnc2n1 : does TGI equal or exceed 3 µM?
No

Check the entry C[N+](C)(C)CC1CCC(C[N+](C)(C)C)C1=NO (stereo unspecified) : does TGI equal or exceed 3 µM?
Yes

Check the entry O=C(N/C(=C\c1ccc([N+](=O)[O-])cc1)c1nc2ccccc2s1)c1ccccc1 : does TGI equal or exceed 3 µM?
Yes

Check the entry [CH3][Sn]([CH3])([CH3])[S]C(=S)N1CCOCC1 : does TGI equal or exceed 3 µM?
Yes

Check the entry ClC1=NSSC1(Cl)Cl : does TGI equal or exceed 3 µM?
Yes

Check the entry Nc1nc(N)c2nc(CN(C=O)c3ccc(C(=O)O)cc3)cnc2n1 : does TGI equal or exceed 3 µM?
Yes

====

System: EKVX NSCLC
ASSAY_PROCEDURE: NCI tumour cell line growth inhibition, 48 h
For each entry below, report its TGI value.

Form entry - test system: EKVX NSCLC; read-out: TGI; molecule: CC1(C)CC(O)CC(C)(C)N1O
> 100 µM

Form entry - test system: EKVX NSCLC; read-out: TGI; molecule: O=C(/C=C/c1ccccc1)c1ccc(Cl)cc1Cl
62.3 µM

Form entry - test system: EKVX NSCLC; read-out: TGI; molecule: COC(=O)C1=NC(=S)NC(c2ccccc2)C1c1nc2ccccc2o1 (stereo unspecified)
> 50 µM

Form entry - test system: EKVX NSCLC; read-out: TGI; molecule: O=C(/C=C/c1ccc(-c2ccccc2)cc1)NCc1ccc(C(=O)NCCc2ccccc2)cc1
> 100 µM

Form entry - test system: EKVX NSCLC; read-out: TGI; molecule: O=C(O)CNc1ccc2c(c1)Cc1cc(Br)ccc1-2
49.7 µM

Form entry - test system: EKVX NSCLC; read-out: TGI; molecule: COC(=O)CC1(O)C(=O)OCc2c1cc1n(c2=O)Cc2c-1nc1ccccc1c2OC (stereo unspecified)
> 100 µM

Form entry - test system: EKVX NSCLC; read-out: TGI; molecule: CN(C)S(=O)(=O)c1ccc2[nH]c(O)c(C3=Nc4ccccc4C3=O)c2c1
> 100 µM

Form entry - test system: EKVX NSCLC; read-out: TGI; molecule: CC[C@H](C)[C@H](NC(=O)C12C3C4C1C1C2C3C41NC)C(=O)N(C)[C@H](C[C@@H](OC(C)=O)c1nc(C(=O)N[C@@H](Cc2ccccc2)C[C@H](C)C(=O)OC)cs1)C(C)C (stereo partly specified)
> 14.3 µM

Form entry - test system: EKVX NSCLC; read-out: TGI; molecule: O/N=C\c1c2c(cc3c1CCC3)CCC2
> 100 µM

Form entry - test system: EKVX NSCLC; read-out: TGI; molecule: Cc1ccc(NCCNCC(C)(C)O)c2c(=O)c3ccc(Cl)cc3sc12
2.87 µM

Form entry - test system: EKVX NSCLC; read-out: TGI; molecule: CCCCNc1ncnc2c1cnn2-c1ccccc1
> 86.6 µM

Form entry - test system: EKVX NSCLC; read-out: TGI; molecule: CC(=O)ON(OCc1ccc2ccccc2c1)C(C)=O
> 100 µM

Form entry - test system: EKVX NSCLC; read-out: TGI; molecule: CC1NOC(=O)C1N=Nc1cccc(Cl)c1 (stereo unspecified)
> 100 µM

Form entry - test system: EKVX NSCLC; read-out: TGI; molecule: CC(C)=CCC[C@@H](C)C1=C(O)C(N[C@H](C)c2ccccc2)=C(C)C(=O)C1=O
> 100 µM

Form entry - test system: EKVX NSCLC; read-out: TGI; molecule: COC(=O)c1ccccc1CC1Cc2c(C)ccc(C)c2C1=O (stereo unspecified)
> 100 µM

Form entry - test system: EKVX NSCLC; read-out: TGI; molecule: COc1ccc(-c2nc3ccccc3c(=O)[nH]2)cc1
> 100 µM

Form entry - test system: EKVX NSCLC; read-out: TGI; molecule: CC(=O)c1csc2c1C(=O)c1ccccc1C2=O
18.6 µM

Form entry - test system: EKVX NSCLC; read-out: TGI; molecule: Cc1cc(Cl)ccc1N=C1NC(=O)C(CC(=O)Nc2cccc(Cl)c2)S1 (stereo unspecified)
> 100 µM

Form entry - test system: EKVX NSCLC; read-out: TGI; molecule: C[N+]1(C)CCCC(C#N)(c2ccccc2)CC1 (stereo unspecified)
> 100 µM

Form entry - test system: EKVX NSCLC; read-out: TGI; molecule: O=c1cc(-c2cccc(OC(F)(F)F)c2)[nH]c2ccc(N3CCCC3)cc12
> 100 µM

Form entry - test system: EKVX NSCLC; read-out: TGI; molecule: C/C(=C\C(=O)Nc1ccc2n[nH]nc2c1)Nc1ccc2n[nH]nc2c1
> 100 µM

Form entry - test system: EKVX NSCLC; read-out: TGI; molecule: CN(C(=O)Cc1ccccc1)n1cn[n+](CC(=O)OC(C)(C)C)c1
> 10 µM

Form entry - test system: EKVX NSCLC; read-out: TGI; molecule: Cc1cccc2c(=O)c3c(O)cc(O)cc3n(C)c12
> 100 µM

Form entry - test system: EKVX NSCLC; read-out: TGI; molecule: CNC(=O)[C@H](Cc1ccccc1)NC(=O)N(CCC#N)CCN(C(=O)N[C@@H](Cc1ccccc1)C(=O)OC)c1ccccc1
> 100 µM

Form entry - test system: EKVX NSCLC; read-out: TGI; molecule: Clc1ccc2c(NCCNc3nc(N4CCOCC4)nc4ccccc34)ccnc2c1
16.4 µM

Form entry - test system: EKVX NSCLC; read-out: TGI; molecule: CCOC(=O)N1c2ccccc2C(C)=CC(C)C1C (stereo unspecified)
99 µM

Form entry - test system: EKVX NSCLC; read-out: TGI; molecule: CCSC[C@@H]1C[C@](O)(c2ccccc2)[C@@H](c2ccccc2)O1
> 100 µM

Form entry - test system: EKVX NSCLC; read-out: TGI; molecule: FC(F)(F)c1ccccc1C1SCc2nc3ccccc3n21 (stereo unspecified)
> 100 µM

Form entry - test system: EKVX NSCLC; read-out: TGI; molecule: OCCc1ccsc1-c1sc(-c2cc(CCO)c(-c3sc(-c4cc(CCO)c(-c5sccc5CCO)s4)cc3CCO)s2)cc1CCO
2.91 µM

Form entry - test system: EKVX NSCLC; read-out: TGI; molecule: Nc1nc(Cl)c(CO)c(NCC2(CO)CCC2)n1
> 100 µM

Form entry - test system: EKVX NSCLC; read-out: TGI; molecule: O=P(CN1CCOCC1)(c1ccccc1)c1ccccc1
> 100 µM

Form entry - test system: EKVX NSCLC; read-out: TGI; molecule: CCOc1ccc(C2=NN(CC)C(=O)C(C3C(=O)N(c4ccccc4)N=C3C)C2)cc1 (stereo unspecified)
> 100 µM

Form entry - test system: EKVX NSCLC; read-out: TGI; molecule: Clc1ccc(-c2cn3c(nc4ccccc43)c(-c3ccccc3)n2)cc1
> 100 µM

Form entry - test system: EKVX NSCLC; read-out: TGI; molecule: CN(CCN)[C@H](CSSC[C@@H](c1ccccc1O)N(C)CCN)c1ccccc1O
23.9 µM

Form entry - test system: EKVX NSCLC; read-out: TGI; molecule: CC[C@H](C)[C@H](NC(=O)[C@H]1CCCCN1C)C(=O)N(C)[C@H](CCc1nc(C(=O)N[C@@H](Cc2ccccc2)C[C@H](C)C(=O)O)cs1)C(C)C
> 25 µM

Form entry - test system: EKVX NSCLC; read-out: TGI; molecule: O=[N+]([O-])c1cccc(/C=N/Nc2ccc3ccccc3n2)c1O
39.1 µM

====

Tested on: ACHN renal
ASSAY_PROCEDURE: NCI tumour cell line growth inhibition, 48 h
For each entry below, report its TGI value.

Could you tell me which TGI is on file for Cc1cccc2c(=O)c3c(O)cc(O)cc3n(C)c12 ?
> 100 µM

Could you tell me which TGI is on file for CC(=O)c1cc2c(N)c(C(=O)Nc3cccc4ccccc34)sc2nc1C ?
> 50 µM

Could you tell me which TGI is on file for CNC(=S)N/N=C/C(C)=N/NC(=S)NC ?
> 100 µM

Could you tell me which TGI is on file for Cc1c(C#N)c2nnn(-c3cccc(Cl)c3)c(=O)n2c1-c1ccccc1 ?
> 100 µM

Could you tell me which TGI is on file for NC1=Nc2cc(C(F)(F)F)ccc2Sc2nc3ccccc3n21 ?
> 100 µM

Could you tell me which TGI is on file for CNC(=O)OCc1cnc([N+](=O)[O-])n1C ?
> 100 µM
